Biological target: α4β2 nicotine receptor (Rattus norvegicus, UniProt P09483+P12390)
Sequence (P09483 31-630): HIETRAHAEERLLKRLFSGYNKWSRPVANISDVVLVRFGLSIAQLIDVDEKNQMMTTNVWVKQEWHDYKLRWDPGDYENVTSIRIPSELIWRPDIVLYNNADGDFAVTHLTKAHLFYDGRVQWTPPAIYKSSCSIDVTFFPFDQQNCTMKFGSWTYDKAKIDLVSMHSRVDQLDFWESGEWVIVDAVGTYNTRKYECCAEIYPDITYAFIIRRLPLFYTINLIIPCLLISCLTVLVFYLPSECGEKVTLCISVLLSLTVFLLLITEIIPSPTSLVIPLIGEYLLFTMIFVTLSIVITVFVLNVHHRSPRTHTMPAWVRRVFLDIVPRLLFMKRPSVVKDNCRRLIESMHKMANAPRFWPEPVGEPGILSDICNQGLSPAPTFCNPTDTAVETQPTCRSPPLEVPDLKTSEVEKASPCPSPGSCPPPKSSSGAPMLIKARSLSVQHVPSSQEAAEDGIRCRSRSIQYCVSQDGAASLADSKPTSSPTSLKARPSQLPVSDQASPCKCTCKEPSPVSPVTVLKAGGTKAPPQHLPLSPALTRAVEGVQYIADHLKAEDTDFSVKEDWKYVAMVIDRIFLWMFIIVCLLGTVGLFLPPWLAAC
Sequence (P12390 25-500): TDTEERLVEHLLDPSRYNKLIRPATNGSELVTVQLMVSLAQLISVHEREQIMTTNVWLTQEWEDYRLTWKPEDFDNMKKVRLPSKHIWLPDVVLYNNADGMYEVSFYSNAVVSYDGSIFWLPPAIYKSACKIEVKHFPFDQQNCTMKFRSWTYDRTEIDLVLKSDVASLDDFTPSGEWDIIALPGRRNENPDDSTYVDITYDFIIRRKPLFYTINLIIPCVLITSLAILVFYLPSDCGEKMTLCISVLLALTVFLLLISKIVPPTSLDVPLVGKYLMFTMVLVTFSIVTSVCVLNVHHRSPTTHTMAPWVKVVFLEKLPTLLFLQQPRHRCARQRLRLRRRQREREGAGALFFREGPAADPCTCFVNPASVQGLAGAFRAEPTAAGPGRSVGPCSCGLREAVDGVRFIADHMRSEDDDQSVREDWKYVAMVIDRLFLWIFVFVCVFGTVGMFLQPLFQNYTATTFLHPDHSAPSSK
Assay: Test A: [3H]cytisine binding
Details: read-out: Ki-[3H]Cytisine
recorded.endpoint: pKi
// pKi here means minus log10 of the molar concentration (mol/L)

In: # pKi lookup, item O=c1cccc2n1C[C@@H]1CNC[C@H]2C1 [Cytisine, reference compound]
Out: 8.56

* * *

Target: α4β2 nicotine receptor (Rattus norvegicus, UniProt P09483+P12390)
Test: Test A: [3H]cytisine binding
Details: Ki-[3H]Cytisine
recorded.endpoint: pKi
FYI, pKi means -log10 of a concentration in mol per litre.

In: Quick one: pKi for O=c1cccc2n1C[C@@H]1CNC[C@H]2C1 [Cytisine, reference compound] ?
Out: 9.05

* * *

Let's look at some compounds and their measured pKi.
Molecular target: α4β2 nicotine receptor (Rattus norvegicus, UniProt P09483+P12390)
Assay: Test A: [3H]cytisine binding
Settings: rat brain; compounds tested in racemic form; read-out: Ki-[3H]Cytisine
Counter-ions that a name gives are not always drawn.
// pKi here means minus log10 of the molar concentration (mol/L)

>>> measured_value("COc1ccc2c(c1)CC(CC1CCCCN1C)=C2 (racemic) [Compound 14, hydrochloride]")
5.05

Then this compound:
In: Could you share which pKi value was measured for CN1CCCCC1CC1=Cc2ccccc2C1 (racemic) [Compound 13, hydrochloride] ?
Out: 5.10
